# pKi per entry for Adenosine receptor A2a (Rattus norvegicus)
Conceptually, pKi converts a concentration in mol/L into minus its log10.

- compound.structure: "Nc1nc(C(=O)NCc2ccccc2)cn2nc(-c3ccco3)nc12"
  pKi: 8.70

Item Nc1nc(-c2cccc(C(=O)N3CCN(c4ccncc4)CC3)c2)cn2nc(-c3ccco3)nc12 was tested on Adenosine receptor A2a (Rattus norvegicus); the reported pKi is 6.14

Item Nc1cccc(-c2cn3nc(-c4ccco4)nc3c(N)n2)c1 was tested on Adenosine receptor A2a (Rattus norvegicus); the reported pKi is 6.20

Item CCCCNC(=O)c1cn2nc(-c3ccco3)nc2c(N)n1 was tested on Adenosine receptor A2a (Rattus norvegicus); the reported pKi is 9.00

Item Nc1nc(-c2cccnc2)cn2nc(-c3ccco3)nc12 was tested on Adenosine receptor A2a (Rattus norvegicus); the reported pKi is 6.34

Item CN(C)C(=O)c1cccc(-c2cn3nc(-c4ccco4)nc3c(N)n2)c1 was tested on Adenosine receptor A2a (Rattus norvegicus); the reported pKi is 7.15

Item Nc1nc(C(=O)NCCc2ccc(O)cc2)cn2nc(-c3ccco3)nc12 was tested on Adenosine receptor A2a (Rattus norvegicus); the reported pKi is 9.00
